Where do these numbers come from? They come from patent US20050288347A1.

Biological target: protein kinase
Test: HTS ATP-utilizing enzyme assay, off-chip mobility-shift format (Caliper HTS 250)
Format: biochemical, human
Conditions: kinase(s) for which the compound exhibits protein kinase inhibitory activity; test compound 10 μM; active = greater than three-sigma from the mean activity of inactive compounds
QUANTITY: Kinase

| COMPOUND | ENDPOINT VALUE |
| --- | --- |
| CCn1c(SCC(=O)N2CCCC(C)C2)nnc1-c1ccc(S(=O)(=O)N2CCN(C)CC2)cc1 (stereo not drawn) | FYN |
| Sc1nnc(-c2ccncc2)n1-c1ccccc1 | LCK |
| N#CCSc1nnc(C2CCCCC2)[nH]1 | GSK3-α |
| O=C(CSc1nnc[nH]1)c1ccc(O)cc1O | GSK3-α |

====

Test system: protein kinase
Experiment: HTS ATP-utilizing enzyme assay, off-chip mobility-shift format (Caliper HTS 250)
Format: biochemical, human
Details: test compound 10 μM; active = activity greater than three-sigma from the mean of the predominately inactive population for that enzyme
QUANTITY: protein kinase against which the compound exhibits inhibitory activity (Table 3)

For orientation, consider the following solved cases.
| COMPOUND | ENDPOINT VALUE |
| --- | --- |
| FC(F)(F)c1cccc(-c2nnc(SCc3cccc(I)c3)[nH]2)c1 | CHEK2 |
| c1ccc(CSc2nnc(CCC3CCCC3)n2Cc2cccnc2)cc1 | GSK3-α |
| Cc1cccc(-c2nnc(SCCN3CCOCC3)n2C)c1 | AKT1 |
| COc1ccccc1-n1c(SCc2ccc(Cl)nc2)nnc1-c1cccc(Cl)c1 | ROCK2 |
| CCn1c(COc2ccc(Cl)c(C)c2)nnc1SC(C)C | AKT1 |
| COc1ccccc1-n1c(SCCn2cccc2)nnc1-c1cccc(Cl)c1 | ROCK2 |

In: Form field - read-out: protein kinase against which the compound exhibits inhibitory activity (Table 3); system: protein kinase; submitted item: "Clc1ccccc1CSc1nncn1-c1cccnc1"
Out: PDGFRR-α

In: Form field - read-out: protein kinase against which the compound exhibits inhibitory activity (Table 3); system: protein kinase; submitted item: "Clc1cccc(NCc2nnc(SCc3ccccc3Cl)n2-c2ccccc2)c1"
Out: LCK

In: Form field - read-out: protein kinase against which the compound exhibits inhibitory activity (Table 3); system: protein kinase; submitted item: "CCn1c(SCC(=O)NNC(=O)C2CCCCC2)nnc1-c1ccncc1"
Out: AURORA-A

In: Form field - read-out: protein kinase against which the compound exhibits inhibitory activity (Table 3); system: protein kinase; submitted item: "COc1ccc(-n2c(SCc3nnc(-c4ccccc4)o3)nnc2-c2ccncc2)cc1"
Out: GSK3-α

In: Form field - read-out: protein kinase against which the compound exhibits inhibitory activity (Table 3); system: protein kinase; submitted item: "CCOc1ccc(NCc2nnc(SCCN3CCOCC3)n2-c2ccc(OC)cc2)cc1"
Out: FYN

In: Form field - read-out: protein kinase against which the compound exhibits inhibitory activity (Table 3); system: protein kinase; submitted item: "COc1ccccc1-n1c(SCCO)nnc1-c1cccc(Cl)c1"
Out: ROCK2

In: Form field - read-out: protein kinase against which the compound exhibits inhibitory activity (Table 3); system: protein kinase; submitted item: "CCn1c(SCCN2CCCCC2)nnc1-c1ccc([N+](=O)[O-])cc1"
Out: PDGFRR-α

In: Form field - read-out: protein kinase against which the compound exhibits inhibitory activity (Table 3); system: protein kinase; submitted item: c1cncc(-c2nnc(SCC3CCCO3)[nH]2)c1 (centres unmarked)
Out: AURORA-A

In: Form field - read-out: protein kinase against which the compound exhibits inhibitory activity (Table 3); system: protein kinase; submitted item: "Cc1ccc(-c2nnc(CSc3nnc(COc4ccccc4)n3-c3ccc(C)cc3)o2)cc1"
Out: GSK3-α

In: Form field - read-out: protein kinase against which the compound exhibits inhibitory activity (Table 3); system: protein kinase; submitted item: "CCSc1nnc(-c2ccncc2)n1CCCOC"
Out: AURORA-A

In: Form field - read-out: protein kinase against which the compound exhibits inhibitory activity (Table 3); system: protein kinase; submitted item: "CC1=CC(C)=NCN1SCc1nnc(SCc2ccc([N+](=O)[O-])cc2)n1Cc1ccco1"
Out: LYNA

====

Molecular target: protein kinase
Test: HTS ATP-utilizing enzyme assay, off-chip mobility-shift format (Caliper HTS 250)
Format: biochemical, human
Conditions: kinase(s) for which the compound exhibits protein kinase inhibitory activity; test compound 10 μM; active = greater than three-sigma from the mean activity of inactive compounds
QUANTITY: Kinase

For orientation, consider the following solved cases.
| COMPOUND | Kinase |
| --- | --- |
| CCn1c(SCC(=O)c2ccc(C)cc2)nnc1-c1ccc(S(=O)(=O)N2CCCCCC2)cc1 | AURORA-A |
| Cn1c(SCC(=O)N2c3ccccc3Sc3ccccc32)nnc1-c1cc2ccccc2cc1O | AURORA-A |
| CCn1c(CNc2ccc(C)cc2C)nnc1SCC(=O)Nc1ccccc1-c1ccccc1 | GSK3-α |
| CC(=O)c1ccc(NC(=O)CSc2nnc(COc3ccccc3)n2-c2ccc(C)cc2)cc1 | CHEK2 |
| N#CCSc1nnc(-c2cccnc2)n1Cc1ccccc1 | AURORA-A |
| O=C(CSc1nnc(CNc2ccc(F)cc2)n1Cc1ccccc1)Nc1cccc(O)c1 | CHEK2 |

In: I'd like to know its Kinase. The compound in question is "CCn1c(SCC(=O)NCc2ccco2)nnc1-c1ccccc1"
Out: FYN

In: I'd like to know its Kinase. The compound in question is Cc1cc(OCc2nnc(SC(C)C(=O)O)n2-c2ccccc2)ccc1Cl (stereo not drawn)
Out: AURORA-A

In: I'd like to know its Kinase. The compound in question is "O=C(CSc1nncn1-c1cccnc1)Nc1cccc(C(=O)O)c1"
Out: AURORA-A

In: I'd like to know its Kinase. The compound in question is "CCOC(=O)CSc1nnc(-c2ccccc2O)n1-c1ccccc1OC"
Out: AURORA-A

In: I'd like to know its Kinase. The compound in question is "CCn1c(SCC(=O)N2CCOCC2)nnc1-c1ccc(S(=O)(=O)N2CCCCC2)cc1"
Out: PAK2

In: I'd like to know its Kinase. The compound in question is "CCc1ccccc1NC(=O)CSc1nnc(COc2ccc(C)cc2)n1C"
Out: PDGFRR-α

In: I'd like to know its Kinase. The compound in question is O=C(CSc1nnc(-c2ccc(O)cc2)n1CC1CCCO1)NCCc1ccccc1 (stereo not drawn)
Out: MSK1

In: I'd like to know its Kinase. The compound in question is "Cn1c(SCC(=O)c2ccc3c(c2)OCCO3)nnc1-c1ccc(S(=O)(=O)N2CCOCC2)cc1"
Out: AURORA-A

====

Test system: protein kinase
Experiment: HTS ATP-utilizing enzyme assay, off-chip mobility-shift format (Caliper HTS 250)
Type: biochemical, human
Settings: test compound 10 μM; active = activity greater than three-sigma from the mean of the predominately inactive population for that enzyme
QUANTITY: protein kinase against which the compound exhibits inhibitory activity (Table 3)

For orientation, consider the following solved cases.
| COMPOUND | ENDPOINT VALUE |
| --- | --- |
| OCC(O)CSc1nnc(-c2cccnc2)[nH]1 (stereo not drawn) | AURORA-A |
| CN(C)CCCSc1nnc(C2CCCC2)[nH]1 | c-TAK1 |
| COc1ccccc1-c1nnc(SCCC(=O)O)n1-c1cccc(Cl)c1 | CHEK2 |
| O=C(CSc1nnc(-c2ccc(O)cc2)n1-c1ccccc1)NN(Br)C(=O)c1ccccc1 | AURORA-A |

In: I'd like to know its protein kinase against which the compound exhibits inhibitory activity (Table 3). The compound in question is "Cc1ccc(-n2c(SCc3ccccc3)nnc2-c2cccnc2)cc1"
Out: AURORA-A

In: I'd like to know its protein kinase against which the compound exhibits inhibitory activity (Table 3). The compound in question is "CCN(CC)S(=O)(=O)c1ccc(-c2nnc(SCC(=O)N3c4ccccc4CCc4ccccc43)n2CC)cc1"
Out: DAPK1

In: I'd like to know its protein kinase against which the compound exhibits inhibitory activity (Table 3). The compound in question is "CC(C)(C)c1ccc(CSc2nnc(-c3ccncc3)n2Cc2ccco2)cc1"
Out: MAPKAPK-2

In: I'd like to know its protein kinase against which the compound exhibits inhibitory activity (Table 3). The compound in question is "Cc1ccc(CSc2nnc(-c3ccccc3C)n2C)cc1"
Out: AKT1

In: I'd like to know its protein kinase against which the compound exhibits inhibitory activity (Table 3). The compound in question is "CCOCCSc1nnc(-c2cccnc2)[nH]1"
Out: AURORA-A

====

Biological target: protein kinase
Experiment: HTS ATP-utilizing enzyme assay, off-chip mobility-shift format (Caliper HTS 250)
Format: biochemical, human
Settings: kinase(s) for which the compound exhibits protein kinase inhibitory activity; test compound 10 μM; active = greater than three-sigma from the mean activity of inactive compounds
QUANTITY: Kinase

For orientation, consider the following solved cases.
| COMPOUND | TESTED ON | ENDPOINT VALUE |
| --- | --- | --- |
| COCCn1c(SCC(=O)Nc2ccc3c(c2)OCO3)nnc1-c1cc2ccccc2cc1O | protein kinase | AURORA-A |
| Cn1c(Cn2nnc3ccccc32)nnc1SCC(=O)Nc1cccc(O)c1 | protein kinase | GSK3-α |
| COCCCn1c(SCC(=O)O)nnc1-c1ccc(C(C)(C)C)cc1 | protein kinase | CHEK2 |
| Cc1cc(C)nc(SCc2nnc(SCC#N)n2-c2cccc(Cl)c2)n1 | protein kinase | LYNA |
| Sc1nnc(C2CCCCC2)n1-c1cccc(Cl)c1 | protein kinase | AURORA-A |
| COc1cccc(NC(=O)CSc2nnc(CNc3ccc(C)cc3)n2C)c1 | protein kinase | CHEK2 |
| CCOC(=O)CSc1nnc(CSc2nc3ccccc3s2)n1C | protein kinase | CSK |
| Cc1cccc(-c2nnc(S)n2Cc2ccccc2)c1 | protein kinase | GSK3-α |

In: Form field - read-out: Kinase; system: protein kinase; submitted item: "CCn1c(SCC(=O)Nc2ccccc2C)nnc1C(C)C"
Out: PDGFRR-α

In: Form field - read-out: Kinase; system: protein kinase; submitted item: "Cn1c(SCC(=O)OC2CCCCC2)nnc1-c1ccc(O)cc1"
Out: GSK3-α
